# PROTOCOL_DESCRIPTION: in vivo
# ASSAY_CONDITIONS: female, 8HUM, mouse
MEASURE: AUC(0-t)

- STRUCTURE_STRING: "COc1nc2ccc(Br)cc2cc1[C@@H](c1ccccc1)[C@@](O)(CCN(C)C)c1cccc2ccccc12"
  MEASURE: "AUC(0-t)"
  TEST_VALUE: "19100 ng·h/mL"

====

# PROTOCOL_DESCRIPTION: Oral pharmacokinetics in 8HUM mice
# ASSAY_CONDITIONS: female, mouse, whole blood
CL/F listing for selected compounds.

- STRUCTURE_STRING: "C[C@]1(COc2ccc(N3CCC(Oc4ccc(OC(F)(F)F)cc4)CC3)cc2)Cn2cc([N+](=O)[O-])nc2O1"
  CL/F: "20.7 mL/min/kg"
- STRUCTURE_STRING: "O=[N+]([O-])c1cn2c(n1)OC[C@@H](OCc1ccc(OC(F)(F)F)cc1)C2"
  CL/F: "2.17 mL/min/kg"
